test: Oscillatory rheology of 1% w/v PA samples in buffers of various pH; assay type: physicochemical; settings: inferred from rheology, TEM, CD, FTIR, ThT; read-out: pKa of glutamic acid residues in the assembled structures
Peptide text beside a SMILES is read from it. * marks the point of attachment. Decanoyl = CCCCCCCCCC(=O)*
Measured Endpoint: pKa

# Compound, Assay Value
rows = [
    ("CCCCCCCCCC(=O)N[C@H](C(=O)N[C@H](C(=O)N[C@@H](C)C(=O)N[C@@H](C)C(=O)N[C@@H](CCC(=O)O)C(=O)N[C@@H](CCC(=O)O)C(N)=O)C(C)C)C(C)C [C10—V2A2E2] (Decanoyl-VVAAEE-NH2)", "5 to 6"),
]

* * *

Listed here are molecules together with their documented Δ Release % (pH 7-5 at 5 hr).
experiment: pH-dependent release of encapsulated 3 kDa FITC-dextran to screen PA sequences; format: physicochemical; conditions: 3 kDa FITC-dextran release; pH 7 minus pH 5 at 5 hr
Peptide text beside a SMILES is read from it. * marks the point of attachment. Palmitoyl = CCCCCCCCCCCCCCCC(=O)*; Decanoyl = CCCCCCCCCC(=O)*

# Molecule, Readout Unit, Δ Release % (pH 7-5 at 5 hr)
records = [
    ("CCCCCCCCCCCCCCCC(=O)N[C@H](C(=O)N[C@@H](C)C(=O)N[C@@H](C)C(=O)N[C@@H](C)C(=O)N[C@@H](CCC(=O)O)C(=O)N[C@@H](CCC(=O)O)C(N)=O)C(C)C [C16—VA3E2] (Palmitoyl-VAAAEE-NH2)", "%", 53.8),
    ("CCCCCCCCCCCCCCCC(=O)N[C@@H](C)C(=O)N[C@@H](C)C(=O)N[C@H](C(=O)N[C@H](C(=O)N[C@@H](CCC(=O)O)C(=O)N[C@@H](CCC(=O)O)C(N)=O)C(C)C)C(C)C [C16—A2V2E2] (Palmitoyl-AAVVEE-NH2)", "%", 38.9),
    ("CCCCCCCCCC(=O)N[C@H](C(=O)N[C@H](C(=O)N[C@@H](C)C(=O)N[C@@H](C)C(=O)N[C@@H](CCC(=O)O)C(=O)N[C@@H](CCC(=O)O)C(N)=O)C(C)C)C(C)C [C10—V2A2E2] (Decanoyl-VVAAEE-NH2)", "%", 62.6),
    ("CCCCCCCCCCCCCCCC(=O)N[C@H](C(=O)N[C@H](C(=O)N[C@@H](C)C(=O)N[C@@H](C)C(=O)N[C@@H](CCC(=O)O)C(=O)N[C@@H](CCC(=O)O)C(N)=O)C(C)C)C(C)C [C16—V2A2E2] (Palmitoyl-VVAAEE-NH2)", "%", 43.6),
    ("CCCCCCCCCC(=O)N[C@H](C(=O)N[C@@H](C)C(=O)N[C@@H](C)C(=O)N[C@@H](C)C(=O)N[C@@H](CCC(=O)O)C(=O)N[C@@H](CCC(=O)O)C(N)=O)C(C)C [C10—VA3E2] (Decanoyl-VAAAEE-NH2)", "%", 39.1),
]
